Tested on: ELIC WT
Assay: Excised patch-clamp recordings from giant liposomes
Settings: read-out: Dose response EC50 (mM cysteamine); 25 mole% POPG; peak current; 0.5 mM BaCl2
reported endpoint: EC50 (mM)
// note: answer is a bare numeric in mM

### Prompt Find the measured EC50 of `NCCS` and report it.
### Response 5.1

###

Target: ELIC R301Q (Dickeya chrysanthemi, UniProt P0C7B7, R300Q)
Construct: MBP (N, cleaved yes); made in house; host or cells: OverExpress C43 (DE3) E. coli
Test: Excised patch-clamp recordings from giant liposomes
Assay type: biochemical, Erwinia chrysanthemi
Details: 25 mole% POPG; read-out: Cysteamine response EC50
reported endpoint: pEC50
Schema: pEC50 number; meaning minus log10 of the concentration expressed in molar units.

### Prompt Supply recorded pEC50 for `NCCS` here.
### Response 2.28

All figures here come from paper PMC6855808.
